For each of the compounds below, state its pIC50.
- Assay text: Antiinflammatory activity in FMLP/CB activated human neutrophils assessed as inhibition of superoxide generation by ferricytochrome c reduction based spectrophotometry
- Type: functional, cell-based, Neutrophil
- Run conditions: Homo sapiens, Neutrophil; read-out: IC50
pIC50 is defined as minus the log10 of a concentration measured in mol/L.

Provide only the value of recorded pIC50 for C=C1C(=O)[C@]23C[C@@H]1CC[C@H]2[C@]1(C)CCC[C@](C)(CO)[C@H]1C[C@@H]3O 5.40

Read off the recorded pIC50 for C=C1C(=O)[C@@]23[C@H](O)C[C@@H]4C(C)(C)CCC[C@@]4(C)[C@@H]2CC[C@H]1[C@H]3OC(C)=O 5.95

Identify pIC50 associated with the compound C=C1C[C@@]23CC[C@H]4[C@@](C)(CCC[C@]4(C)C(=O)O)[C@@H]2[C@H](OC(C)=O)C[C@H]1C3 5.39

Given the compound C=C1C(=O)[C@]23C[C@@H]1C[C@@H](OC(C)=O)[C@H]2[C@]1(C)CCC[C@](C)(COC(C)=O)[C@H]1C[C@@H]3O , write its reported pIC50. 5.88

Complete the entry with pIC50 for c1ccc2c(c1)[I+]c1ccccc1-2 6.03

For the compound CC(=O)O[C@H]1C[C@@H]2C[C@]3(C=C2C=O)CC[C@H]2[C@@](C)(CCC[C@]2(C)C(=O)O)[C@H]13 , report pIC50. 5.30

Please give the documented pIC50 of C=C1C(=O)[C@@]23[C@H](O)C[C@@H]4C(C)(C)CC[C@@H](OC(C)=O)[C@@]4(C)[C@@H]2CC[C@@H]1[C@H]3O 5.71
